# Tested on: SN12C renal
# ASSAY DETAILS: NCI-60 one-dose screen, 48 h
# EXPERIMENTAL PARAMETERS: 10 µM unless noted
About 83,000 compounds went through this panel and 20% of them were active in at least one assay; those are over-represented in the sample as a whole. Calls of active or inactive are those of the source. The calls were made as follows: active = growth percent below 10; inactive = the rest.
Could you please pick one outcome from this set? active, inactive

These solved cases illustrate the format of a correct answer.
> print(dat)
                                smiles.text  label.class
1  O=C(Nc1ccccc1)Nc1ccc(C(=O)/C=C/c2ccc(N3CCCC3)cc2)cc1     inactive
2  Cc1cc(C)c(O)c(CNCCCCCCNCc2cc(C)cc(C)c2O)c1     inactive
3  O=C(O)c1cn(C2CC2)c2cc(N3CCN(Cc4c(O)ccc5ccccc45)CC3)c(F)cc2c1=O     inactive
4  Cc1ccc(S(=O)(=O)Oc2ccc([N+](=O)[O-])cc2[N+](=O)[O-])cc1     inactive
5  CCc1ccc(C2=C/C(=C/c3ccccc3)C(=O)N2CCc2ccc(S(N)(=O)=O)cc2)cc1     inactive
6  CC(=O)OC[C@]12CC[C@@H](C(=O)CBr)[C@@H]1[C@H]1CC[C@@H]3[C@@]4(C)CCCNC(C)(C)[C@@H]4CC[C@@]3(C)[C@]1(C)CC2       active
7         O=c1cc(-c2ccccc2)oc2c(O)c(O)ccc12     inactive
8  CCn1cc(-c2ccnc(NCCNS(=O)(=O)c3cccc4ccccc34)c2)c(-c2cccc(O)c2)n1     inactive

Would you kindly look at the next entry?
## Task Returns: the outcome recorded for O=C(Nc1ccc(Oc2ccc(F)cc2)c(Cl)c1)c1cccnn1 in this assay.
## Result inactive

* * *

# Tested on: MDA-MB-435 melanoma
# ASSAY DETAILS: NCI-60 one-dose screen, 48 h
# EXPERIMENTAL PARAMETERS: 10 µM unless noted
# Protocol: Growth inhibition of the MDA-MB-435 human Melanoma tumor cell line is measured as a screen for anti-cancer activity. Cells are grown in 96 well plates and exposed to the test compound for 48 hours. Compounds are tested at a single concentration, which is 10^-5 M for most compounds. The reported endpoint is percent growth (GI% or GIPRCNT), where numbers from 0 - 100% represent growth inhibition, and numbers from -100% - 0 represent cell death. […]
The panel holds about 83,000 compounds, 20% with a hit somewhere; the sample as a whole holds those more often. Calls of active or inactive are those of the source. The calls were made as follows: active = growth percent below 10; inactive = the rest.
Could you please pick one outcome from this set? active, inactive

These solved cases illustrate the format of a correct answer.
COMPOUND	LABEL CLASS
CCn1cc(-c2ccnc(NCCNS(=O)(=O)c3ccc(Br)cc3)c2)c(-c2cccc(OC)c2)n1	inactive
CCCCOC(=O)c1cccc([N+](=O)[O-])c1	inactive
COc1ccc2c(c1)C(C)Cc1c(Cl)ncnc1N2C (centres undefined)	active

## Task Returns: the outcome recorded for CCOC(=O)c1nn(C2CCCCO2)c2ccc(NS(=O)(=O)c3ccc(C)cc3)cc12 (centres undefined) in this assay.
## Result inactive

## Task Returns: the outcome recorded for O=[N+]([O-])c1cccc(/C=C/c2ccc3ccccc3n2)c1 in this assay.
## Result inactive

## Task Returns: the outcome recorded for O=C(CCN1CCCCC1)c1ccc(Cl)cc1 in this assay.
## Result inactive

## Task Returns: the outcome recorded for CC[C@]12C=CCN3CC[C@@]4(c5ccc(OC)cc5N(C)[C@H]4[C@@](O)(C(=O)OC)[C@@H]1OC(=O)CCC(=O)N[C@H](Cc1c[nH]c4ccccc14)C(=O)OC)[C@@H]32 in this assay.
## Result active

## Task Returns: the outcome recorded for CSc1nc(=S)c2nc(SC)n(-c3ccccc3)c2[nH]1 in this assay.
## Result inactive

## Task Returns: the outcome recorded for COc1ccc(C2CC(c3cc(OC)c(OC)c(OC)c3)=NN2C(C)=O)cc1OCC(=O)Nc1nc2ccc(C(F)(F)F)cc2s1 (centres undefined) in this assay.
## Result inactive
